Origin of values: patent US8409560B2

Assay: Caco-2 apparent intestinal permeability
Format: in vitro ADME
Settings: human, Caco-2, pH 7.4, B-to-A; 1 μM; read-out: Papp Avg.
measurement kind: Papp B→A at 60 min, 1 μM (×10⁻⁶ cm/s)

>  <compound>
O=C(CC(c1ccccc1)c1ccccc1)N1CCN(C(c2ccccc2)c2ccccc2)CC1 [Compound 1]

>  <measurement kind>
Papp B→A at 60 min, 1 μM

>  <experimental value>
4.32

$$$$

----------
Test: Phase I (Group 2) study of HME or SDD formulations in healthy human subjects, fed (standard meal)
Assay type: in vivo
Settings: human, plasma, po, 225 mg, 225 mg HME or SDD oral, period 2, Mean, read-out: Half-Life Period 2 (converted)
Protocol: Bioavailability of the ion channel modulator compound 1 was studied in healthy human subjects using SDD and HME formulations, with subjects in a fed state. The effect the SDD or HME formulation on bioavailability following a single oral dose under fed conditions was thereby evaluated and compared. Safety and tolerability of compound 1 was also evaluated. […]

>  <chemical smiles>
O=C(CC(c1ccccc1)c1ccccc1)N1CCN(C(c2ccccc2)c2ccccc2)CC1

>  <half-life>
166 h

$$$$

----------
Assay: Solubility of compound 1 (previously determined)
Type: physicochemical
Settings: water, pH 6.5, aqueous buffer; pH of 6.5; read-out: solubility in water

>  <chemical smiles>
O=C(CC(c1ccccc1)c1ccccc1)N1CCN(C(c2ccccc2)c2ccccc2)CC1

>  <solubility / µg/mL>
0.03

$$$$

----------
Test: Caco-2 apparent intestinal permeability
Assay type: in vitro ADME
Settings: human, Caco-2, pH 7.4; read-out: Efflux Ratio (Papp(B-to-A)/Papp(A-to-B))

>  <chemical smiles>
O=C(CC(c1ccccc1)c1ccccc1)N1CCN(C(c2ccccc2)c2ccccc2)CC1

>  <efflux ratio at 60 min, 1 μM>
0.8

$$$$

----------
Assay: Phase I (Group 2) study of HME or SDD formulations in healthy human subjects, fed (standard meal)
Format: in vivo
Conditions: human, plasma, po, 225 mg, 225 mg HME or SDD oral, period 1, Mean, read-out: Half-Life Period 1 (converted)

>  <chemical smiles>
O=C(CC(c1ccccc1)c1ccccc1)N1CCN(C(c2ccccc2)c2ccccc2)CC1

>  <half-life (h)>
139

$$$$

----------
Test: Caco-2 apparent intestinal permeability
Assay type: in vitro ADME
Conditions: human, Caco-2, pH 7.4, A-to-B; 1 μM; read-out: Percent Recovery

>  <chemical smiles>
O=C(CC(c1ccccc1)c1ccccc1)N1CCN(C(c2ccccc2)c2ccccc2)CC1

>  <scale unit>
%

>  <recovery at 60 min, 1 μM>
28

$$$$

----------
Assay: Caco-2 apparent intestinal permeability
Format: in vitro ADME
Details: human, Caco-2, pH 7.4, B-to-A; 1 μM; read-out: Percent Recovery

>  <chemical smiles>
O=C(CC(c1ccccc1)c1ccccc1)N1CCN(C(c2ccccc2)c2ccccc2)CC1

>  <scale unit>
%

>  <recovery at 60 min, 1 μM>
37

$$$$

----------
Assay: Caco-2 apparent intestinal permeability
Assay type: in vitro ADME
Details: human, Caco-2, pH 7.4, A-to-B; 1 μM; read-out: Papp Avg.

>  <chemical smiles>
O=C(CC(c1ccccc1)c1ccccc1)N1CCN(C(c2ccccc2)c2ccccc2)CC1

>  <Papp A→B at 60 min, 1 μM, ×10⁻⁶ cm/s>
5.15

$$$$

----------
Test: log P of compound 1 (previously determined)
Format: physicochemical
Description: Compound 1 has the following previously determined characteristics: […]
measurement kind: logP

>  <compound>
O=C(CC(c1ccccc1)c1ccccc1)N1CCN(C(c2ccccc2)c2ccccc2)CC1 [Compound 1]

>  <experimental value>
2.6

$$$$
